Value source: paper PMC2408616

# assayed-system: T1, Kap104p (yeast (S. cerevisiae), UniProt P38217 1-918)
# T1 construct: Kap104p, yeast homolog of Kapβ2; gene a gift from J. Aitchison, subcloned into pGEX-Tev; also called yeast Karyopherin β2 homolog; source: E. coli Rosetta(DE3)pLysS, purified (glutathione sepharose, TEV cleavage, anion exchange, gel filtration)
# T1 sequence (looked up): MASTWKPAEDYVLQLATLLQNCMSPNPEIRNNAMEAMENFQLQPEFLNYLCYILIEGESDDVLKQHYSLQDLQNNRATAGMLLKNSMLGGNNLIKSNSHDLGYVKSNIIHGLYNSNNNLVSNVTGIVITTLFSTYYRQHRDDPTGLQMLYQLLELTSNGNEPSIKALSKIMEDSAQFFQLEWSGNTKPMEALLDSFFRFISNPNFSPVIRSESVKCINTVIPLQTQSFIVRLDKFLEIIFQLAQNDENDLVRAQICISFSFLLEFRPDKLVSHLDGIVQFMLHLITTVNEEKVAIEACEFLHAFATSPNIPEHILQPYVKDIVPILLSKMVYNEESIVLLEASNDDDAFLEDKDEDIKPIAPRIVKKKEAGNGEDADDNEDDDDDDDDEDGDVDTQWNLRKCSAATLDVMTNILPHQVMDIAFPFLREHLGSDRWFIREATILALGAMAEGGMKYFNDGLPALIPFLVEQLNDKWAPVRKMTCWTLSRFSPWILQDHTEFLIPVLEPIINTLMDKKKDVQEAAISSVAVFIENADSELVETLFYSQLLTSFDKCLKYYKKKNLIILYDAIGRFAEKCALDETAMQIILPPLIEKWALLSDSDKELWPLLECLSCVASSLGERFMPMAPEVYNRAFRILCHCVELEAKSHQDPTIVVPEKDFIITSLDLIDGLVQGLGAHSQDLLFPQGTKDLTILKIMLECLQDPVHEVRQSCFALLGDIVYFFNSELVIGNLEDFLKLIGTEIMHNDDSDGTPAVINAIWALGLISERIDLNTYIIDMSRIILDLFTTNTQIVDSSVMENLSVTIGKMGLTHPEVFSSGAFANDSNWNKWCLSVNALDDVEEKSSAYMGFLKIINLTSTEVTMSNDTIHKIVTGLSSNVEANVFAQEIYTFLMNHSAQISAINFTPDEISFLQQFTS
# protocol: ITC; 90–350 μM MBP-NLS titrated into 9–35 μM Kap104p in the cell; 20 °C; 20 mM Tris pH 7.5, 100 mM NaCl, 2 mM β-mercaptoethanol, 10% glycerol; 35 injections of 8 μl; single-site model
# stated-conditions: both partners purified
measurement-label: KD,mutant/KD,wild type
Please give the numeric answer without any surrounding text.

**Q:** Look up KD,mutant/KD,wild type: MBP–Nab2p NLS R235A (domain or fragment, S. cerevisiae, UniProt P32505 201-251, looked up, Nab2p NLS, residues 201-251; source: E. coli BL21(DE3), purified (amylose resin, cation exchange)) DNSQRFTQRGGGAVGKNRRGGRGGNRGGRNNNSTAFNPLAKALGMAGESNM
**A:** 5.5

**Q:** Continue with RDRNDRDRDYNHRSGGNHRRNGRGGRGGYNRRNNGAHPYNR (domain or fragment, S. cerevisiae, UniProt Q99383 494-534, looked up, Hrp1p NLS, residues 494-534; source: E. coli BL21(DE3), purified (amylose resin, cation exchange)) [MBP–Hrp1p NLS Y529A]
**A:** 4
